Reference for the values: PubChem BioAssay (NCI)

Assay: NCI Yeast Anticancer Drug Screen. Data for the rad50 strain (AID 155);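 note: 0% = growth of vehicle-only cultures of the same strain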
Conditions: S. cerevisiae rad50 strain growth inhibition; at 50.0 µM; hits give high values
This is part of a sample that, as a whole, favours compounds with a hit. Of some 79,000 tested, about 15% had one in any assay.
Collected growth inhibition values appear next to each entry.
MEASURE: growth inhibition (%)

MOLECULE: CCCCCCCCCN1CCNC1=S
EXPERIMENTAL_RESULT: 38.9
--
MOLECULE: CCCCCCCC/C=C\CCCCCCCC(=O)O (tested in a mixture with another compound)
EXPERIMENTAL_RESULT: 96.2
--
MOLECULE: COc1ccc2c(C)c(N=C=S)c(=O)oc2c1
EXPERIMENTAL_RESULT: 60.2
--
MOLECULE: S=C1NC2=C(CSC/C2=C\c2cccc(Br)c2)C(c2cccc(Br)c2)N1 (stereo unspecified)
EXPERIMENTAL_RESULT: 92.7
--
MOLECULE: CC1=NC(c2ccccc2)(C2(c3ccccc3)C(c3ccccc3)=C2c2ccccc2)C(=O)O1 (stereo unspecified)
EXPERIMENTAL_RESULT: 86
--
MOLECULE: COc1ccc(N=NC(C(=O)c2ccccc2)C(=O)c2ccccc2)cc1
EXPERIMENTAL_RESULT: 92.3
--
MOLECULE: O=C1CCC(Cc2ccc(I)cc2)C(=O)N1 (stereo unspecified)
EXPERIMENTAL_RESULT: -2.9
--
MOLECULE: O=C(O)CCCc1ccc2ccccc2c1
EXPERIMENTAL_RESULT: 17.4
--
MOLECULE: Cc1occc1C(=S)Nc1ccc(Cl)c(COC(C)(C)C)c1
EXPERIMENTAL_RESULT: 78.9
--
MOLECULE: COc1ccc2c(Cc3cccc([N+](=O)[O-])c3)cncc2c1O
EXPERIMENTAL_RESULT: 29.8
--
MOLECULE: CCCCCCCCc1ccc2c3ccccc3c3ccccc3c2c1
EXPERIMENTAL_RESULT: 76.8

---

Experiment: NCI Yeast Anticancer Drug Screen. Data for the rad50 strain (AID 155);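 note: 0% = growth of vehicle-only cultures of the same strain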
Conditions: S. cerevisiae rad50 strain growth inhibition; at 50.0 µM
Protocol: Growth inhibition of yeast strains with defined genetic alterations is measured as a screen for potential anti-cancer activity. Selected strains with alterations in DNA damage repair or cell cycle control were exposed to compounds and growth inhibition was measured relative to vehicle treated controls. The strain used in this assay is rad50
This is part of a sample that, as a whole, favours compounds with a hit. Of some 79,000 tested, about 15% had one in any assay. Active and inactive are the calls of the source. Rule as the data show it: active = growth inhibition above about 70%; inactive = the rest.
Labels: y (active), n (inactive)

COMPOUND: O=C(/C=C/c1cccc2ccccc12)c1cccc([N+](=O)[O-])c1
QUALITATIVE_LABEL: n

COMPOUND: CN1CCS(=O)(=O)C1=O
QUALITATIVE_LABEL: y

COMPOUND: COc1ccc2nc(-c3ccc(Cl)cc3)[nH]c2c1
QUALITATIVE_LABEL: y

COMPOUND: Cc1ccc(/C=N/NS(=O)(=O)c2ccccc2)c(C)c1
QUALITATIVE_LABEL: n

COMPOUND: CCCCCCCCCCCC[N+](C)(CCS(=O)(=O)[O-])Cc1ccccc1 (stereo unspecified)
QUALITATIVE_LABEL: y

COMPOUND: COC(=O)[C@@H](O)[C@]1(C(=O)OC)C2O[C@@H](OC)[C@@H]1CCCCCC[C@H]2O
QUALITATIVE_LABEL: n
